TARGET_OR_SYSTEM: HLA-B*39:01
PROTOCOL: IEDB peptide-MHC binding, purified MHC/competitive/fluorescence; filed as Kd, often an IC50 or EC50 that approximates it; bounds were set here for any values at or beyond the usual limits of such assays
TEST_CONTEXT: source organism: Choclo virus
pKd: −log10 of the molar value.
MEASURED_METRIC: pKd

Tell me pKd reported for GRFQEALKK
≤ 4.70

====

TARGET_OR_SYSTEM: HLA-B*18:01
PROTOCOL: IEDB peptide-MHC binding, purified MHC/competitive/fluorescence; filed as Kd, often an IC50 or EC50 that approximates it; bounds were set here for any values at or beyond the usual limits of such assays
TEST_CONTEXT: source organism: Homo sapiens
MEASURED_METRIC: Kd

Give Kd for the following sequence: GVRQFSGWM
≥ 20 µM

====

TARGET_OR_SYSTEM: HLA-A*02:01
PROTOCOL: IEDB peptide-MHC binding, purified MHC/direct/fluorescence; filed as Kd, often an IC50 or EC50 that approximates it; bounds were set here for any values at or beyond the usual limits of such assays
TEST_CONTEXT: source organism: Amur virus
pKd: −log10 of the molar value.
MEASURED_METRIC: pKd

Report value only: pKd, HLA-A*02:01, SMLSYGNVL
≥ 9.00

====

Recorded Kd, one value per entry.
TARGET_OR_SYSTEM: HLA-A*03:01
PROTOCOL: IEDB peptide-MHC binding, purified MHC/direct/fluorescence; filed as Kd, often an IC50 or EC50 that approximates it; bounds were set here for any values at or beyond the usual limits of such assays
TEST_CONTEXT: source organism: Orthohantavirus sangassouense

Determine from records and report Kd for SPGDNSAKF
≥ 20 µM

Note: attention shifts to another entry.
Give the value of Kd reported for the following: MRNTIMASK
≥ 20 µM

====

TARGET_OR_SYSTEM: HLA-B*15:01
PROTOCOL: IEDB peptide-MHC binding, purified MHC/competitive/fluorescence; filed as Kd, often an IC50 or EC50 that approximates it; bounds were set here for any values at or beyond the usual limits of such assays
TEST_CONTEXT: source organism: Giardia lamblia ATCC 50803
MEASURED_METRIC: pKd
Lab note: report pKd as minus log10 of the concentration in molar units, number only.

Tell us which pKd value is on record for RTMPLSRFT
4.86

====

TARGET_OR_SYSTEM: HLA-B*35:01
PROTOCOL: IEDB peptide-MHC binding, purified MHC/direct/fluorescence; filed as Kd, often an IC50 or EC50 that approximates it; bounds were set here for any values at or beyond the usual limits of such assays
TEST_CONTEXT: source organism: Vibrio parahaemolyticus RIMD 2210633
MEASURED_METRIC: Kd (nM)
Just the number in nM, nothing appended.

Tell me Kd of FAAWIQQTY when tested on HLA-B*35:01.
10

====

TARGET_OR_SYSTEM: HLA-A*69:01
PROTOCOL: IEDB peptide-MHC binding, purified MHC/direct/fluorescence; filed as Kd, often an IC50 or EC50 that approximates it; bounds were set here for any values at or beyond the usual limits of such assays
TEST_CONTEXT: source organism: Brucella melitensis
MEASURED_METRIC: pKd
In simple prose, pKd is minus the logarithm base ten of a concentration in moles per litre.

Please respond with reported pKd (system HLA-A*69:01) for ETDLNQWMV .
9.10

Data origin, for the record: the Immune Epitope Database (IEDB)
